- Tested on: MDA-MB-231 breast
- Assay text: NCI-60 one-dose screen, 48 h
- Condition summary: 10 µM unless noted
- Experimental: Cells are grown in 96 well plates and exposed to the test compound for 48 hours. Compounds are tested at a single concentration, which is 10^-5 M for most compounds. The reported endpoint is percent growth (GI% or GIPRCNT), where numbers from 0 - 100% represent growth inhibition, and numbers from -100% - 0 represent cell death. For example, a value of 40 represents 60% growth inhibition. A value of 0 means no net growth occurred over the course of the experiment. […]
Compounds without any hit were thinned out: in the full panel of roughly 83,000, 20% have a hit. Calls of active or inactive are those of the source. How the source made its calls: active means growth percent below 10; inactive means the rest.
Answer with one of the outcomes label 1 for active, label 0 for inactive

These recorded examples may help you get a feel for the data.
>>> df
                          entry_smiles  answer_label
0  CCCCCCCCCCCCOC(=O)/C=C\C(=O)NC(N)=O       label 0
1     O=C(NCCCl)Nc1nccnc1OCc1ccc(F)cc1       label 0

Q) Lab log entry: Nc1ccc(S(=O)(=O)Nc2cc(F)cc(F)c2)cc1 — outcome as called in the assay?
A) label 0

Q) Lab log entry: O=C(/C=C1\C(=O)N(Cc2ccc([N+](=O)[O-])cc2)c2ccccc21)c1ccc(OCCN2CCCCC2)cc1 — outcome as called in the assay?
A) label 1

Q) Lab log entry: CC(=O)Nc1nc(C)c(C(=O)N/N=C/N2CCCCC2)s1 — outcome as called in the assay?
A) label 0

Q) Lab log entry: Cc1ccc(NC(=O)CCl)cc1Cl — outcome as called in the assay?
A) label 0

---

- Test system: BT-549 breast
- Assay text: NCI-60 one-dose screen, 48 h
- Condition summary: 10 µM unless noted
Compounds without any hit were thinned out: in the full panel of roughly 83,000, 20% have a hit. Calls of active or inactive are those of the source. How the source made its calls: active means growth percent below 10; inactive means the rest.
Answer with one of the outcomes y for active, n for inactive

>>> df
                                   compound  answer_label
0  COc1cccc(CNC(=O)c2cccc(C3CC(=O)c4c(cc(OC)c(OC)c4OC)O3)c2)c1 (configuration not stated)             n
1                                C=CCNCCC#N             n
2                Cc1cc(CSc2ccc(Cl)cc2)ccc1N             n
3  C[C@H]1C[C@@H](n2cnc3c(N)nccc32)[C@H](O)[C@@H]1O             n
4  O=C(/C=C1\C(=O)N(Cc2ccc([N+](=O)[O-])cc2)c2ccccc21)c1ccc(OCCN2CCCC2)cc1             n
5   COc1ccc(-n2nnnc2-c2cn[nH]c2C(F)(F)F)cc1             n
6  COc1cc(-c2nc(/C=C3/C(=O)Nc4ccccc43)c3ccccn23)cc(OC)c1OC             n
7  CCCCCCCCCc1cc[n+](CC(=O)c2ccc([N+](=O)[O-])cc2)cc1             n

Q) Lab log entry: CC(=N\N=C(N)N)/C(=N/N=C(N)N)c1ccccc1 — outcome as called in the assay?
A) n

Q) Lab log entry: C/C(=N\Nc1ccc(Cl)cn1)c1ccccn1 — outcome as called in the assay?
A) y

Q) Lab log entry: Oc1ccc(N=Nc2ccc(N=Nc3ccccc3)cc2)cc1 — outcome as called in the assay?
A) n

Q) Lab log entry: CC1=NN(c2cccc(Cl)c2)C(=O)/C1=C\c1cn(-c2nc(N3CCOCC3)nc(N3CCOCC3)n2)c2ccccc12 — outcome as called in the assay?
A) n

Q) Lab log entry: Cc1ncc(C(=O)Nc2ccc(CN3CCN(C)CC3)c(C(F)(F)F)c2)cc1C#Cc1c(N)ncc2ccc(F)cc12 — outcome as called in the assay?
A) n

---

- Test system: COLO 205 colon
- Assay text: NCI-60 one-dose screen, 48 h
- Condition summary: 10 µM unless noted
Compounds without any hit were thinned out: in the full panel of roughly 83,000, 20% have a hit. The source made the active and inactive calls. The calls were made as follows: active = growth percent below 10; inactive = the rest.
Answer with one of the outcomes t = active, f = inactive

In [3]: df
Out[3]:
                                   compound  answer_label
0  CCCCS(=O)(=O)c1cc(Nc2ccc(O)c3c2C(=O)c2ccccc2C3=O)ccc1C             f
1              CC(=O)Nc1ccc(S(=O)(=O)Cl)cc1             f
2  COc1ccc(-c2nnc(SCC(=O)Nc3ccc(C(=O)/C=C/c4cc(OC)c(OC)c(OC)c4)cc3)n2-c2ccccc2)cc1OC             f
3  CC(O)CN(CC(C)O)N(CC(C)O)CC(C)O (centres undefined)             f
4  CCC(C)[C@H](NC(=O)Nc1cc(C(F)(F)F)cc(C(F)(F)F)c1)C(=O)N[C@@H](Cc1cn(C)cn1)C(=O)OC (some centres undefined)             t

Q) Lab log entry: CC[n+]1c(C)ccc2cc(C)ccc21 — outcome as called in the assay?
A) f

Q) Lab log entry: Cc1nc2c(nnn2-c2ccccc2)c2nc(-c3ccccc3)oc(=O)c12 — outcome as called in the assay?
A) f

Q) Lab log entry: CCCCCCC(=O)C(C)C — outcome as called in the assay?
A) f

Q) Lab log entry: O=c1[nH]c(=S)[nH]c(O)c1/C=C1\C=Nc2ccccc21 — outcome as called in the assay?
A) f

Q) Lab log entry: O=C(Nc1ccc(-n2cc(-c3ccncc3)c(-c3ccc(Cl)c(O)c3)n2)cc1)c1cc(Cl)cc(Cl)c1 — outcome as called in the assay?
A) f

Q) Lab log entry: CC(=O)Nc1nc(C)c(C(=O)NNS(=O)(=O)c2ccccc2)s1 — outcome as called in the assay?
A) f

Q) Lab log entry: COc1cc(NC(=O)CSc2nc3ccc(Cl)cc3c(=O)n2-c2ccc(F)cc2)cc(OC)c1OC — outcome as called in the assay?
A) f

Q) Lab log entry: COc1ccc(Oc2[nH]n(C3=Nc4ccccc4Sc4ccccc43)c(=O)c2C#N)cc1 — outcome as called in the assay?
A) f

Q) Lab log entry: CCCCCCCCCC(C)NC(=O)CCl (centres undefined) — outcome as called in the assay?
A) f

Q) Lab log entry: [2H]c1nc(=Nc2cc(NC(=O)C=C)c(N(C)CCN(C)C)cc2OC)[nH]c(-c2cn(C([2H])([2H])[2H])c3ccccc23)c1[2H] — outcome as called in the assay?
A) f

Q) Lab log entry: CCOC(=O)C1CCCN1C(=O)C1(NC(C)=O)CCCC1 (centres undefined) — outcome as called in the assay?
A) f

Q) Lab log entry: N=C(N)N=Nc1ccc(NN=C(N)N)c2ccccc12 — outcome as called in the assay?
A) f

Q) Lab log entry: C=CCNC(=S)NNc1ccc([N+](=O)[O-])cn1 — outcome as called in the assay?
A) f

---

- Tested on: SR leukemia
- Assay text: NCI-60 one-dose screen, 48 h (100 = growth as untreated, 0 = no growth, -100 = all killed)
- Condition summary: 10 µM unless noted
- Description: Growth inhibition of the SR human tumor cell line is measured as a screen for anti-cancer activity. Cells are grown in 96 well plates and exposed to the test compound for 48 hours. Compounds are tested at a single concentration, which is 10^-5 M for most compounds. The reported endpoint is percent growth (GI% or GIPRCNT), where numbers from 0 - 100% represent growth inhibition, and numbers from -100% - 0 represent cell death. For example, a value of 40 represents 60% growth inhibition. […]
This is part of a sample that, as a whole, favours compounds with a hit. Of some 83,000 tested, about 20% had one in any assay.
Readout type: growth (%)
Give bare numbers, in %.

For each of the compounds below, note its growth.
1. CCCCN(CCCC)CC(O)CN(CC)CC (stereo not given)
2. S=C(N/N=C/c1cc(Cl)cc(Cl)c1)NC12CC3CC(CC(C3)C1)C2
3. CC(O)C(N)=O (stereo not given)
4. Nc1nc2c(c3cnccc13)C(c1ccc(Cl)c(Cl)c1)Cc1cnccc1-2 (stereo not given)

A)
[97, 20, 102, 5.08]

For each of the compounds below, note its growth.
1. CC1(C)N=C(N)N=C(N)N1c1cccc(CCCCOc2ccccc2)c1
2. CCOC(=O)c1c(C)oc2ncnc(Nc3ccc(NC(=O)Nc4cccc(Cl)c4)cc3)c12
3. O=C(O)CS(=O)c1ccc(Cl)cc1 (stereo not given)
4. Nc1nc2c(c3cnccc13)C(c1cccc(Br)c1)Cc1cnccc1-2 (stereo not given)
5. Cc1ccc(CC(=O)O)c(C)c1
6. C=CN(C)S(C)(=O)=O
7. COc1ccc2cn3c4ccc(O)cc4[nH]c(=O)c3c2c1
8. CCOC(=O)CCCCCCCCC(=O)OCC

A)
1. 31.6
2. 53.6
3. 84.9
4. 17.8
5. 94.1
6. 14.2
7. 16.1
8. 106

For each of the compounds below, note its growth.
1. CCc1c(C)c2ccc(OCC(=O)N=Nc3c(O)[nH]c4ccccc34)c(C)c2oc1=O
2. CCCC(C)c1cc(Cc2cc(Cl)cc(Cl)c2O)c(O)c(Cc2cc(Cl)cc(Cl)c2O)c1 (stereo not given)
3. CC(=O)N(N=O)c1ccc([N+](=O)[O-])cc1Cl

A)
1. 8.17
2. 5.98
3. 63.1
